biological target: Inhibitor of nuclear factor kappa-B kinase subunit beta (Homo sapiens); assay: Inhibition of IKKbeta using 5FAM-GRHDSGLDSMK-NH2 as substrate at 10 uM incubated for 10 mins prior to substrate addition by IMAP-TR-FRET assay
Consider the reported inhibition of an entry and match it to a band in LOW (below 30%), MEDIUM (30% to below 80%), HIGH (80% or more)

Solved entries:
[[record]]
compound = "CCN(CC)CCCOc1ccc(N2C(=O)/C(=C/c3c(Cl)cccc3Cl)SC2=S)cc1"
measurement_target = "Inhibitor of nuclear factor kappa-B kinase subunit beta (Homo sapiens)"
label = "LOW"

[[record]]
compound = "CN1CCN(CCCCOc2ccc(N3C(=O)/C(=C/c4ccc(Oc5ccc(C(N)=O)cc5)cc4)SC3=S)cc2)CC1"
measurement_target = "Inhibitor of nuclear factor kappa-B kinase subunit beta (Homo sapiens)"
label = "HIGH"

[[record]]
compound = "CCN(CC)CCCOc1ccc(N2C(=O)/C(=C/c3ccc(Oc4cccc(C(N)=O)c4)cc3)SC2=S)cc1"
measurement_target = "Inhibitor of nuclear factor kappa-B kinase subunit beta (Homo sapiens)"
label = "HIGH"

[[record]]
compound = "CCN(CC)CCOc1ccc(N2C(=O)/C(=C/c3ccc(Oc4ccccc4C(N)=O)cc3)SC2=S)cc1"
measurement_target = "Inhibitor of nuclear factor kappa-B kinase subunit beta (Homo sapiens)"
label = "LOW"

[[record]]
compound = "NC(=O)c1cccc(Oc2ccc(/C=C3\\SC(=S)N(c4ccc(OCCCN5CCOCC5)cc4)C3=O)cc2)c1"
measurement_target = "Inhibitor of nuclear factor kappa-B kinase subunit beta (Homo sapiens)"
label = "MEDIUM"

[[record]]
compound = "CCN(CC)CCCOc1ccc(N2C(=O)/C(=C/c3ccncc3)SC2=S)cc1"
measurement_target = "Inhibitor of nuclear factor kappa-B kinase subunit beta (Homo sapiens)"
label = "LOW"

[[record]]
compound = "CCN(CC)CCCOc1ccc(N2C(=O)/C(=C/C=C(c3ccccc3)c3ccccc3)SC2=S)cc1"
measurement_target = "Inhibitor of nuclear factor kappa-B kinase subunit beta (Homo sapiens)"
label = "MEDIUM"

[[record]]
compound = "CN1CCN(CCCOc2ccc(N3C(=O)/C(=C/c4ccc(Oc5ccccc5C(N)=O)cc4)SC3=S)cc2)CC1"
measurement_target = "Inhibitor of nuclear factor kappa-B kinase subunit beta (Homo sapiens)"
label = "MEDIUM"

[[record]]
compound = "CCN(CC)CCCOc1ccc(N2C(=O)/C(=C/c3ccc(Oc4ccccc4C(N)=O)cc3)SC2=S)cc1"
measurement_target = "Inhibitor of nuclear factor kappa-B kinase subunit beta (Homo sapiens)"
label = "LOW"

[[record]]
compound = "N#Cc1c(C2CCCNC2)cc(-c2ccccc2O)nc1N (stereo unspecified)"
measurement_target = "Inhibitor of nuclear factor kappa-B kinase subunit beta (Homo sapiens)"
label = "HIGH"


State the band of CCN(CC)CCCOc1ccc(N2C(=O)/C(=C/c3ccc(O)cc3)SC2=S)cc1 MEDIUM

// same read-out, input: CCN(CC)CCCOc1ccc(N2C(=O)/C(=C/c3ccc(-c4ccc(C(N)=O)cc4)o3)SC2=S)cc1 MEDIUM
